Provenance of the data: patent US20230134571A1

Target: HIV Env of isolate R1166.c01 (clade AE) (HIV)
Assay: cell-based or functional assay
REPORTED_ENDPOINT: IC50 (µg/ml) with constrains (µg/mL)
# unit: µg/mL | format: bare number

The binder listed as PGDM1400 (antibody, V domains shown) VH: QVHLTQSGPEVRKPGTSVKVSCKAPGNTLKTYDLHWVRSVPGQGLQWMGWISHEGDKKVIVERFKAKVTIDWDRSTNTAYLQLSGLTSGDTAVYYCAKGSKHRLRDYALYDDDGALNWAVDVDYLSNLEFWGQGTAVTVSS VL: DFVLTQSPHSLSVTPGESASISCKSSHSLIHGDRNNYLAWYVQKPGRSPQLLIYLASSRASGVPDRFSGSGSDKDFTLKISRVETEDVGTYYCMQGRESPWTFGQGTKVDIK shows IC50 (µg/ml) with constrains equal to 1.48

The binder listed as ePGDM9 (antibody, V domains shown) VH: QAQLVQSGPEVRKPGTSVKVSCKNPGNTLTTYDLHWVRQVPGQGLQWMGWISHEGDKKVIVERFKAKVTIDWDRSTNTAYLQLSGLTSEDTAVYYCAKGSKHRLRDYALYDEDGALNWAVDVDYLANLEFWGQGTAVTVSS VL: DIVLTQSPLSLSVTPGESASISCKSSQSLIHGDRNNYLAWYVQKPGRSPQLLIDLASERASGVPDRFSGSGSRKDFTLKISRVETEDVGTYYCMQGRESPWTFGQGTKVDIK shows IC50 (µg/ml) with constrains equal to 0.215

The binder listed as ePGDM13 (antibody, V domains shown) VH: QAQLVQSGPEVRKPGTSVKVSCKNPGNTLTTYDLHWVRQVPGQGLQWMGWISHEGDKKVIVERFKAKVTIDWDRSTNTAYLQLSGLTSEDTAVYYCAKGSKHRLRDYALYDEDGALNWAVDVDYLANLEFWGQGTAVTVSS VL: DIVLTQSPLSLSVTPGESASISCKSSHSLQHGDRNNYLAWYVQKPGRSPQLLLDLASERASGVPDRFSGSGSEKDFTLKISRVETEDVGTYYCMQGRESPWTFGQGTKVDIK shows IC50 (µg/ml) with constrains equal to 0.194

The binder listed as ePGDM5 (antibody, V domains shown) VH: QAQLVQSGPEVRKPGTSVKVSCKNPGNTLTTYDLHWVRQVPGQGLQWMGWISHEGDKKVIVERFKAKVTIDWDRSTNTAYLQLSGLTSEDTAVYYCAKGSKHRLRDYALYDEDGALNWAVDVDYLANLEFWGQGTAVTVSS VL: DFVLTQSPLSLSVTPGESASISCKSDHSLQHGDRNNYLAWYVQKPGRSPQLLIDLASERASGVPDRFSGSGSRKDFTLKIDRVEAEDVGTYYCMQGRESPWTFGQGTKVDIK shows IC50 (µg/ml) with constrains equal to 0.166
